Reference source for all entries: patent US7572890B2

# Tgt: rhMBP (without Vitamin C) (Homo sapiens, UniProt P11226)
# Construct: made in house; host or cells: CHO DG44 (dhfr-), neomycin/MTX-resistant clones; purified from culture supernatant on mannan-agarose
# Sequence (P11226 21-248): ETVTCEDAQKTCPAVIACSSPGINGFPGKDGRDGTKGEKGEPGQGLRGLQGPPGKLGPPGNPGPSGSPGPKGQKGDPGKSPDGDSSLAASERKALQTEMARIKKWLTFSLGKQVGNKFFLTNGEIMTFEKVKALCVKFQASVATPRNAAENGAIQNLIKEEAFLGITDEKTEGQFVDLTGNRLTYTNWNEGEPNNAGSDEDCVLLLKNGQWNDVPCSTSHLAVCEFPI
# Assay overview: Sugar inhibition of rhMBP (cultured without vitamin C) binding to mannan (ELISA)
# Condition details: rhMBP (without Vitamin C); mannan-coated microtiter plates; read-out: I 50: Sugar concentration to halve binding activities with mannan
# label = Condition met if IC50 < 9 mM else Condition not met

- Compound: "OC[C@H]1O[C@H](O[C@H]2[C@H](O)[C@@H](O)[C@H](O)O[C@@H]2CO)[C@H](O)[C@@H](O)[C@@H]1O [Maltose]"
  Assigned category: "Condition met"
- Compound: "CC(=O)N[C@H]1C(O)O[C@H](CO)[C@@H](O)[C@@H]1O (stereo partly drawn) [N-Acetyl-D-Glucosamine]"
  Assigned category: "Condition met"
- Compound: "C[C@H](O)[C@@H](O)[C@@H](O)[C@H](O)C=O [L-Fucose]"
  Assigned category: "Condition met"
- Compound: "CC(=O)N[C@@H]1C(O)O[C@H](CO)[C@@H](O)[C@@H]1O (stereo partly drawn) [N-Acetyl-D-Mannosamine]"
  Assigned category: "Condition met"
- Compound: "OC[C@H]1O[C@@H](O[C@H]2[C@H](O)[C@@H](O)C(O)O[C@@H]2CO)[C@H](O)[C@@H](O)[C@H]1O (stereo partly shown) [Lactose]"
  Assigned category: "Condition not met"
- Compound: "C[C@@H](O)[C@H](O)[C@H](O)[C@@H](O)C=O [D-Fucose]"
  Assigned category: "Condition not met"
- Compound: "CC(=O)N[C@H]1C(O)O[C@H](CO)[C@H](O)[C@@H]1O (stereo partly drawn) [N-Acetyl-D-Galactosamine]"
  Assigned category: "Condition not met"
